Each recorded value in this set is attributed to ChEMBL document CHEMBL1201862.

The reader will find reported EC50 values listed item by item below.
- target_or_system: UniProt:P38532
- Sequence (P38532 whole entry): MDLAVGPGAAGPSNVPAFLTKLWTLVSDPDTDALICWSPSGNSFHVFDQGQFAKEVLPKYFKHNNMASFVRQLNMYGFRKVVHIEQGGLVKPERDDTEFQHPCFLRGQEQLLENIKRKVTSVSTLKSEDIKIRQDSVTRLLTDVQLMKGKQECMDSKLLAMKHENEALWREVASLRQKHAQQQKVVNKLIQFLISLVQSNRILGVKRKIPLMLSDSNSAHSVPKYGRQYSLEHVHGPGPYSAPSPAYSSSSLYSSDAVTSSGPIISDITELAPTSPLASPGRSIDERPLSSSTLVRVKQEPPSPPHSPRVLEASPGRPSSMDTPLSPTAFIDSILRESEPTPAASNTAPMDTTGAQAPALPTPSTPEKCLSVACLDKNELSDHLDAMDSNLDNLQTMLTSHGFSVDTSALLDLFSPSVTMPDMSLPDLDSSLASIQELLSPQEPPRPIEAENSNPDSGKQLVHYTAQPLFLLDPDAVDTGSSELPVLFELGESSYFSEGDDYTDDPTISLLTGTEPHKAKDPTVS
- assay_name: inhibition of MG132-induced HSE-luciferase signal, confirmation, cell-based, NIH3T3, luminescence, dose retest (AID 2382);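 also: NIH3T3 fibroblasts with HSF1-driven luciferase reporter stressed by proteasome inhibitor MG132; luminescence from HSF1-driven luciferase expression after 8 hours of MG132 stress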
- Assay type: functional
The source made the active and inactive calls. Rule as the data show it: actives have a measured EC50 and inactives only a lower limit.

A selection of reference data follows.
Query block: Provide measured EC50 value, entry: `Cn1c(/C=C/c2ccccc2)nc2ccccc2c1=O`
Result block: > 195 µM (not active)

Query block: Provide measured EC50 value, entry: `COc1ccc(/C=N/c2c(-c3ccc(OC)cc3)nc3n2CCS3)cc1`
Result block: > 195 µM (not active)

Query block: Provide measured EC50 value, entry: `O=C(O)CCn1cc(/C=C2\NC(=S)N(c3ccccc3)C2=O)c(-c2ccc(Br)cc2)n1`
Result block: > 195 µM (not active)

Query block: Provide measured EC50 value, entry: `CC(C)(C)c1ccc(C(=O)ON=C(N)c2ccccc2)cc1`
Result block: < 0.16 µM (active)

Query block: Provide measured EC50 value, entry: `C[n+]1c(/C=C/c2ccc3c(c2)OCO3)ccc2ccccc21`
Result block: 0.181 µM (active)

Continuing:
Query block: Provide measured EC50 value, entry: `N#Cc1cccc(C#N)c1Oc1ccc(S(=O)(=O)Nc2ccc(Cl)cc2)cc1`
Result block: > 195 µM (not active)

Query block: Provide measured EC50 value, entry: CCN1c2nc3c(C)cccn3c(=O)c2CC2(C(=O)N(C)C(=O)N(C)C2=O)C1C (stereo not drawn)
Result block: > 195 µM (not active)

Query block: Provide measured EC50 value, entry: `COc1ccc(Cn2c(SC)nc3ccccc32)cc1[N+](=O)[O-]`
Result block: > 195 µM (not active)
